target: human PD-L1 / Human PD-1 (Homo sapiens (Human), UniProt Q9NZQ7); assay: Enzyme-Linked Immunosorbent Assay (ELISA), PD-1/PD-L1 binding; conditions: Table 2; plate-coated human PD-L1, biotinylated human PD-1; read-out: ELISA IC50
Sequence (Q9NZQ7 19-239): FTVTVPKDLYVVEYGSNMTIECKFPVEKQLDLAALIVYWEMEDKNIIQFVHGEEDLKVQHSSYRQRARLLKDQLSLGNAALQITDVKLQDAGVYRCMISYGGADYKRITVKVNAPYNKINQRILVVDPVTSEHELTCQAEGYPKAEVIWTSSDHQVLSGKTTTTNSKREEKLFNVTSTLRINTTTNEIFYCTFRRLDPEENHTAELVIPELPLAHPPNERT
Property: IC50

- COc1ccc(-c2cccc3c2CC[C@@H]3Oc2cc(OCc3cncc(C#N)c3)c(CN[C@@H](CO)C(=O)O)cc2Cl)cc1OC: 0.5 to 20 µM
- OC1CCN(Cc2cc(Cl)c(O[C@H]3CCc4c(-c5ccccc5F)cccc43)cc2OCc2ccc(C(F)(F)F)nc2)CC1 [Example 2.096]: 0.5 to 20 µM

Q: Looking for the measured IC50 of N#Cc1cncc(COc2cc(O[C@H]3CCc4c(-c5ccccc5F)cccc43)c(Cl)cc2CNC23CC(C2)C3)c1 , can you help?
A: 0.5 to 20 µM

====

target: human PD-L1 / Human PD-1 (Homo sapiens (Human), UniProt Q9NZQ7); assay: Enzyme-Linked Immunosorbent Assay (ELISA), PD-1/PD-L1 binding; settings: Table 2; plate-coated human PD-L1, biotinylated human PD-1; read-out: ELISA IC50
pIC50: −log10 of the molar value.
Property: pIC50

Solved entries (count: 3):
* N#Cc1cncc(COc2cc(O[C@H]3CCc4c(-c5ccccc5)cccc43)c(Cl)cc2CNC[C@@H](O)CC(=O)O)c1 | > 7.00
* N#Cc1cncc(COc2cc(O[C@H]3CCc4c(-c5ccccc5F)cccc43)c(Cl)cc2CN2CC[C@H](O)[C@@H](F)C2)c1 | 4.70 to 6.30
* N#Cc1cncc(COc2cc(O[C@H]3CCc4c(-c5ccccc5F)cccc43)c(Cl)cc2CN[C@H](CO)C(=O)O)c1 | > 7.00

Q: Looking for the measured pIC50 of COc1cccc(-c2cccc3c2CC[C@@H]3Oc2cc(OCc3cncc(C#N)c3)c(CN[C@@H](CO)C(=O)O)cc2Cl)c1 , can you help?
A: > 7.00

Q: Looking for the measured pIC50 of CC(CO)(NCc1cc(Cl)c(O[C@H]2CCc3c(-c4ccccc4F)cccc32)cc1OCc1cncc(C#N)c1)C(=O)O (stereo partly drawn) , can you help?
A: > 7.00

Q: Looking for the measured pIC50 of N#Cc1cncc(COc2cc(O[C@H]3CCc4c(-c5ccccc5F)cccc43)c(Cl)cc2CN2CCC(O)CC2)c1 , can you help?
A: > 7.00

====

target: human PD-L1 / Human PD-1 (Homo sapiens (Human), UniProt Q9NZQ7); assay: Enzyme-Linked Immunosorbent Assay (ELISA), PD-1/PD-L1 binding; settings: Table 3; plate-coated human PD-L1, biotinylated human PD-1; read-out: ELISA IC50
Quick reference: IC50 of the listed items.

Q: Looking for the measured IC50 of CC(NCc1cc(Cl)c(O[C@H]2CCc3c(-c4ccccc4F)cccc32)cc1OCc1cncc(C#N)c1)C(=O)c1ccc(O)c(O)c1 (stereo partly drawn) , can you help?
A: 100 to 500 nM

Q: Looking for the measured IC50 of N#Cc1cncc(COc2cc(O[C@H]3CCc4c(-c5ccc6c(c5F)OCCO6)cccc43)c(Cl)cc2CN[C@@H](CCO)C(=O)O)c1 , can you help?
A: < 100 nM

Q: Looking for the measured IC50 of Cc1cc2cc(CNCc3cc(Cl)c(O[C@H]4CCc5c(-c6ccccc6F)cccc54)cc3OCc3cncc(C#N)c3)ccc2[nH]1 , can you help?
A: 500 to 20000 nM

Q: Looking for the measured IC50 of C[C@H](NCc1cc(Cl)c(O[C@H]2CCc3c(-c4ccccc4F)cccc32)cc1OCc1cncc(C#N)c1)C(=O)NCC(=O)O , can you help?
A: 100 to 500 nM

Q: Looking for the measured IC50 of N#Cc1cncc(COc2cc(O[C@H]3CCc4c(-c5cc6c(cc5F)OCCO6)cccc43)c(Cl)cc2CN[C@H](O)CO)c1 , can you help?
A: < 100 nM

Q: Looking for the measured IC50 of CC(O)C(NCc1cc(Cl)c(O[C@H]2CCc3c(-c4ccccc4F)cccc32)cc1OCc1cncc(C#N)c1)c1nnn[nH]1 (stereo partly drawn) , can you help?
A: < 100 nM

====

molecular target: human PD-L1 / Human PD-1 (Homo sapiens (Human), UniProt Q9NZQ7); test: Enzyme-Linked Immunosorbent Assay (ELISA), PD-1/PD-L1 binding
pIC50: −log10 of the molar value.
Property: pIC50

Q: Looking for the measured pIC50 of N#Cc1cncc(COc2cc(O[C@H]3CCc4c(-c5ccccc5F)cccc43)c(Cl)cc2CN2CCC(F)CC2)c1 , can you help?
A: 6.30 to 7.00

====

biological target: human PD-L1 / Human PD-1 (Homo sapiens (Human), UniProt Q9NZQ7); experiment: Enzyme-Linked Immunosorbent Assay (ELISA), PD-1/PD-L1 binding; settings: Table 3; plate-coated human PD-L1, biotinylated human PD-1; read-out: ELISA IC50
Quick reference: IC50 of the listed items.

Solved entries (count: 5):
* N#Cc1cncc(COc2cc(O[C@H]3CCc4c(-c5ccccc5F)cccc43)c(Cl)cc2CN[C@H](Cc2ccc(O)cc2)C(=O)O)c1 [Example 3.102] | 500 to 20000 nM
* N#Cc1cncc(COc2cc(O[C@H]3CCc4c(-c5ccccc5F)cccc43)c(Cl)cc2CN[C@@H](CNC(=N)N)C(=O)O)c1 [Example 3.096] | 100 to 500 nM
* N#Cc1cc(COc2cc(O[C@H]3CCc4c(-c5cccc(O)c5F)cccc43)c(Cl)cc2CN[C@@H](CO)C(=O)O)cc(NC=O)c1 [Example 3.020] | < 100 nM
* N#Cc1cncc(COc2cc(O[C@H]3CCc4c(-c5ccccc5F)cccc43)c(Cl)cc2CN[C@H](CCCNC(=N)N)C(=O)O)c1 [Example 3.098] | 100 to 500 nM
* C[C@@](CO)(NCc1cc(Cl)c(O[C@H]2CCc3c(-c4ccc5c(c4F)OCCO5)cccc32)cc1OCc1cc(C#N)cc(C#N)c1)C(=O)O [Example 3.005] | < 100 nM

Below: the item to evaluate.
Q: Looking for the measured IC50 of C[C@@](CO)(NCc1cc(Cl)c(O[C@@H]2CCc3c(-c4ccccc4F)cccc32)cc1OCc1cncc(C#N)c1)C(=O)O [Example 3.119] , can you help?
A: < 100 nM

====

Quick reference: pIC50 of the listed items.
Molecular target: human PD-L1 / Human PD-1 (Homo sapiens (Human), UniProt Q9NZQ7)
Test: Enzyme-Linked Immunosorbent Assay (ELISA), PD-1/PD-L1 binding
Details: Table 2; plate-coated human PD-L1, biotinylated human PD-1; read-out: ELISA IC50
Procedure: Plates were coated with 1 μg/mL of human PD-L1 (obtained from R&D) in PBS overnight at 4° C. The wells were then blocked with PBS containing 2% BSA in PBS (W/V) with 0.05% TWEEN-20 for 1 hour at 37° C. […] The absorbance was read at 450 nm using a micro-plate spectrophotometer. Compounds in Table 2 and Table 3 were prepared by methods as described in the Examples, and evaluated according to the assay below.
pIC50: −log10 of the molar value.

Q: Looking for the measured pIC50 of C[C@H](O)[C@H](NCc1cc(Cl)c(O[C@H]2CCc3c(-c4ccccc4F)cccc32)cc1OCc1cncc(C#N)c1)C(=O)O [Example 2.127] , can you help?
A: > 7.00

Q: Looking for the measured pIC50 of N#Cc1cncc(COc2cc(O[C@H]3CCc4c(-c5ccccc5F)cccc43)c(Cl)cc2CN2CCC(O)(C(=O)O)C2)c1 (stereo partly drawn) [Example 2.022] , can you help?
A: > 7.00

Q: Looking for the measured pIC50 of Cc1ccc(F)c(-c2cccc3c2CC[C@@H]3Oc2cc(OCc3cncc(C#N)c3)c(CN[C@@H](CO)C(=O)O)cc2Cl)c1 [Example 2.067] , can you help?
A: > 7.00

Q: Looking for the measured pIC50 of N#Cc1cncc(COc2cc(O[C@H]3CCc4c(-c5cccc(F)c5)cccc43)c(Cl)cc2CN[C@@H](CO)C(=O)O)c1 [Example 2.010] , can you help?
A: > 7.00

Q: Looking for the measured pIC50 of COc1cccc(F)c1-c1cccc2c1CC[C@@H]2Oc1cc(OCc2cncc(C#N)c2)c(CN2CCC(O)CC2)cc1Cl [Example 2.108] , can you help?
A: 4.70 to 6.30

Q: Looking for the measured pIC50 of Cc1cccc(-c2cccc3c2CC[C@@H]3Oc2cc(OCc3cncc(C#N)c3)c(CN3CC(O)C3)cc2Cl)c1F [Example 2.076] , can you help?
A: 6.30 to 7.00

====

target: human PD-L1 / Human PD-1 (Homo sapiens (Human), UniProt Q9NZQ7); test: Enzyme-Linked Immunosorbent Assay (ELISA), PD-1/PD-L1 binding; conditions: Table 3; plate-coated human PD-L1, biotinylated human PD-1; read-out: ELISA IC50
Property: IC50

Solved entries (count: 6):
• N#Cc1cncc(COc2cc(O[C@H]3CCc4c(-c5cccc(CO)c5)cccc43)c(Cl)cc2CN[C@@H](CO)C(=O)O)c1 = 500 to 20000 nM
• N#Cc1cncc(COc2cc(O[C@H]3CCc4c(C5=CCCCC5)cccc43)c(Cl)cc2CN[C@@H](CO)C(=O)O)c1 = < 100 nM
• N#Cc1cncc(COc2cc(O[C@H]3CCc4c(-c5ccc6c(c5F)OCCO6)cccc43)c(Cl)cc2CN[C@H]2CONC2=O)c1 = 500 to 20000 nM
• N#Cc1cc(C#N)cc(COc2cc(O[C@H]3CCc4c(-c5ccccc5F)cccc43)c(Cl)cc2CN[C@@H](CO)C(=O)O)c1 = < 100 nM
• N#Cc1cncc(COc2cc(O[C@H]3CCc4c(-c5ccccc5F)cccc43)c(Cl)cc2CNCCCN2CCN(CCO)CC2)c1 = 100 to 500 nM
• N#Cc1ccnc(COc2cc(O[C@H]3CCc4c(-c5ccc6c(c5F)OCCO6)cccc43)c(Cl)cc2CN[C@@H](CO)C(=O)O)c1 = < 100 nM

Q: Looking for the measured IC50 of N#Cc1cc(C#N)cc(COc2cc(O[C@H]3CCc4c(-c5ccccc5)cccc43)c(Cl)cc2CN[C@@H](CO)C(=O)O)c1 , can you help?
A: < 100 nM

Q: Looking for the measured IC50 of CC(C)OC(=O)[C@@H](NCc1cc(Cl)c(O[C@H]2CCc3c(-c4ccc5c(c4F)OCCO5)cccc32)cc1OCc1cncc(C#N)c1)[C@@H](C)O , can you help?
A: 500 to 20000 nM

Q: Looking for the measured IC50 of N#Cc1cncc(COc2cc(O[C@H]3CCc4c(-c5ccccc5F)cccc43)c(Cl)cc2CNCCO)c1 , can you help?
A: < 100 nM
